- Assay notes: Bfl-1 counter-screen inhibitors, SAR follow-up, counter-screen for UBC13 polyubiquitination inhibitor project, biochemical, set 4 (AID 602400)
- Conditions used: Bfl-1 counterscreen for UBC13 inhibitors
Calls of active or inactive are those of the source. No rule for the calls is given here.
Outcomes: true (1) (active), false (0) (inactive)

Cc1cc(C)cc(NC(=O)C2CCN(c3ncnc4c3nc3n4CCCCC3)CC2)c1 | true (1)
Cc1cccc(NC(=O)C2CCN(c3ncnc4c3nc3n4CCCCC3)CC2)c1 | false (0)
O=C(NCc1ccc(Cl)c(Cl)c1)C1CCN(c2ncnc3c2nc2n3CCCC2)CC1 | false (0)
Cc1cccc(NC(=O)C2CCN(c3ncnc4c3nc3n4CCCC3)CC2)c1 | true (1)
O=C(Nc1ccc(F)c(Cl)c1)C1CCN(c2ncnc3c2nc2n3CCCCC2)CC1 | false (0)
Cc1ccc(NC(=O)C2CCN(c3ncnc4c3nc3n4CCCCC3)CC2)cc1C | false (0)
O=C(NCc1cccc(Cl)c1)C1CCN(c2ncnc3c2nc2n3CCCC2)CC1 | false (0)
Cc1cccc(NC(=O)C2CCN(c3ncnc4c3nc3n4CCCCC3)CC2)c1C | false (0)
Cc1ccc(NC(=O)C2CCN(c3ncnc4c3nc3n4CCCCC3)CC2)c(Cl)c1 | false (0)
O=C(NCC1CCN(Cc2cccc(Cl)c2)CC1)C1CCCN(c2ncnc3c2nc2n3CCCC2)C1 (stereo not given) | false (0)
O=C(NCc1cccc(Cl)c1)C1CCN(c2ncnc3c2nc2n3CCCCC2)CC1 | false (0)
Cc1cc(Cl)ccc1NC(=O)C1CCN(c2ncnc3c2nc2n3CCCCC2)CC1 | false (0)
Cc1ccc(NC(=O)C2CCN(c3ncnc4c3nc3n4CCCC3)CC2)cc1F | false (0)
O=C(Nc1cccc(Cl)c1)C1CCN(c2ncnc3c2nc2n3CCCCC2)CC1 | false (0)
O=C(NCC1CCN(Cc2ccc(Cl)c(Cl)c2)CC1)C1CCCN(c2ncnc3c2nc2n3CCCC2)C1 (stereo not given) | false (0)
O=C(NCc1ccc(Cl)c(Cl)c1)C1CCCN(c2ncnc3c2nc2n3CCCC2)C1 (stereo not given) | false (0)
Cc1cc(C)cc(NC(=O)C2CCCN(c3ncnc4c3nc3n4CCCC3)C2)c1 (stereo not given) | false (0)
O=C(Nc1cc(F)ccc1F)C1CCN(c2ncnc3c2nc2n3CCCCC2)CC1 | false (0)
O=C(NCC1CCN(Cc2cccc(Cl)c2)CC1)C1CCCN(c2ncnc3c2nc2n3CCCCC2)C1 (stereo not given) | false (0)
COc1ccc(NC(=O)C2CCN(c3ncnc4c3nc3n4CCCCC3)CC2)cc1Cl | false (0)
CC1CCCCN1C(=O)C1CCN(c2ncnc3c2nc2n3CCCCC2)CC1 (stereo not given) | false (0)
COc1ccccc1N1CCN(CCCNC(=O)C2CCCN(c3ncnc4c3nc3n4CCCCC3)C2)CC1 (stereo not given) | false (0)
O=C(c1ccco1)N1CCN(C(=O)C2CCN(c3ncnc4c3nc3n4CCCCC3)CC2)CC1 | false (0)
COc1cc(Cl)c(C)cc1NC(=O)C1CCN(c2ncnc3c2nc2n3CCCCC2)CC1 | false (0)
Cc1ccc(NC(=O)C2CCN(c3ncnc4c3nc3n4CCCCC3)CC2)cc1F | false (0)
COc1cc(OC)c(NC(=O)C2CCN(c3ncnc4c3nc3n4CCCCC3)CC2)cc1Cl | false (0)
O=C(NCC1CCN(Cc2ccc(Cl)c(Cl)c2)CC1)C1CCCN(c2ncnc3c2nc2n3CCCCC2)C1 (stereo not given) | false (0)
O=C(NCc1cccc(Cl)c1)C1CCCN(c2ncnc3c2nc2n3CCCCC2)C1 (stereo not given) | false (0)
O=C(NCC1CCN(Cc2ccccc2Cl)CC1)C1CCCN(c2ncnc3c2nc2n3CCCCC2)C1 (stereo not given) | false (0)
CC1CCCC(C)N1CCCNC(=O)C1CCCN(c2ncnc3c2nc2n3CCCCC2)C1 (stereo not given) | false (0)

Data origin, for the record: PubChem BioAssay AID602400
